B1: C1orf55 (parent)
chain: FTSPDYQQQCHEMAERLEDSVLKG

Variants of: B1
testProtocol: protein stability index of a GFP-peptide fusion (GPS, HEK-293T) (PSI 1-6); higher = more stable;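 also: lentivirally expressed fusions sorted by FACS into six bins by GFP to DsRed ratio, PSI derived from sequencing read proportions per bin multiplied by bin number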
conditionSummary: c terminus: a fixed tail appended
Could you please report measured protein stability index for the items listed next?
Numbers only.

>>> df
                          residues  measuredresult
0  FTSPDYQQQCHVMAERLEDSVLKG [E12V]            1.88
1  FTSPDYQQQCHESAERLEDSVLKG [M13S]            2.53
2  FTSPDYQQQCHEMAERLEASVLKG [D19A]            1.83

Record protein stability index per entry; entries follow.
1. FTSPDYQQQCHEMAEILEDSVLKG [R16I]
2. QTSPDYQQQCHEMAERLEDSVLKG [F1Q]

a:
1: 2.94; 2: 4.35

Record protein stability index per entry; entries follow.
1. FTKPDYQQQCHEMAERLEDSVLKG [S3K]
2. FTSRDYQQQCHEMAERLEDSVLKG [P4R]
3. FTSPDYQQQCHEMAERLEDSRLKG [V21R]
4. FASPDYQQQCHEMAERLEDSVLKG [T2A]
5. FTSPDYQQQCHEMAERLADSVLKG [E18A]
6. FTSEDYQQQCHEMAERLEDSVLKG [P4E]

a:
1: 3.47; 2: 2.8; 3: 2.33; 4: 2.62; 5: 1.96; 6: 4.3

Record protein stability index per entry; entries follow.
1. FTSPDYQQQCHKMAERLEDSVLKG [E12K]
2. FTSPDYQQQCHEMAERKEDSVLKG [L17K]

a:
1.32
1.97

q: Requested read-out: protein stability index. Entry: FTSPDLQQQCHEMAERLEDSVLKG [Y6L]
a: 4.3
